Reference source: ChEMBL document CHEMBL1156251

# Test system: Escherichia coli
# assayComment: Antimicrobial activity against Escherichia coli
# Assay type: functional
Quick reference: MIC of the listed items.
Report the figure in µg/mL without appending any unit label.

Worked set:
CCCCCCCCC(=O)N[C@H](C(=O)N[C@@H](CCN)C(=O)N[C@H]1CCNC(=O)[C@H]([C@@H](C)O)NC(=O)[C@H](CCN)NC(=O)[C@H](CCN)NC(=O)[C@H](CC(C)C)NC(=O)[C@@H](Cc2ccccc2)NC(=O)[C@H](CCN)NC1=O)[C@@H](C)O    0.5
CCCC(=O)N[C@@H](CCN)C(=O)N[C@@H](C(=O)N[C@@H](CCN)C(=O)N[C@H]1CCNC(=O)[C@@H]([C@@H](C)O)NC(=O)[C@H](CCN)NC(=O)[C@H](CCN)NC(=O)[C@H](CC(C)C)NC(=O)[C@@H](Cc2ccccc2)NC(=O)[C@H](CCN)NC1=O)[C@@H](C)O [BUTANOYL FATTY ACYL POLYMYXIN B]    23

Lab note: next compound to report on.
Per the record, CCC(C)CCCCC(=O)N[C@@H](CCNCc1ccc(C(C)C)cc1)C(=O)N[C@@H](C(=O)N[C@@H](CCN)C(=O)N[C@H]1CCNC(=O)[C@@H]([C@@H](C)O)NC(=O)[C@H](CCNCc2ccc(C(C)C)cc2)NC(=O)[C@H](CCNCc2ccc(C(C)C)cc2)NC(=O)[C@H](CC(C)C)NC(=O)[C@@H](Cc2ccccc2)NC(=O)[C@H](CCNCc2ccc(C(C)C)cc2)NC1=O)[C@@H](C)O (some centres undefined) has MIC of 12

* * *

# System: Escherichia coli
# assayComment: Antimicrobial activity against Escherichia coli
# Assay type: functional
metricName: MIC

Per the record, CC(C)C[C@@H]1NC(=O)[C@@H](Cc2ccccc2)NC(=O)[C@H](CCN)NC(=O)[C@@H](NC(=O)[C@H](CCN)NC(=O)[C@@H](NC(=O)[C@H](CCC(=O)O)NC(=O)O)[C@@H](C)O)CCNC(=O)[C@H]([C@@H](C)O)NC(=O)[C@H](CCN)NC(=O)[C@H](CCN)NC1=O [DESFA-[GLU1]POLYMYXIN B] has MIC of ≥ 256 µM

Per the record, "CCCCCCCC(=O)N[C@@H](CCN)C(=O)N[C@H](C(=O)N[C@@H](CCN)C(=O)N[C@H]1CCNC(=O)[C@H]([C@@H](C)O)NC(=O)[C@H](CCNC(=O)CCl)NC(=O)[C@H](CCN)NC(=O)[C@H](CC(C)C)NC(=O)[C@@H](Cc2ccccc2)NC(=O)[C@H](CCN)NC1=O)[C@@H](C)O" has MIC of 0.454 µg/mL

Per the record, CCC(C)CCCCCOC(=O)[C@H](CCCCN)NC(=O)C(NC(=O)[C@H](CCCCN)NC(=O)[C@H](CCCCN)NC(=O)[C@@H](NC(=O)[C@H](CCCCN)NC(=O)[C@@H](CCCCN)NC(=O)[C@@H](N)CC(C)C)[C@@H](C)O)[C@@H](C)O (single isomer, unassigned) has MIC of 50 µg/mL

* * *

# System: Escherichia coli
# assayComment: Antimicrobial activity against Escherichia coli
# Type: functional
Where a SMILES comes first, the peptide text is derived from it. Bridges are numbered along the chain shown (N, C = ends). [ ]: non-standard residue; d: D form. The star is where a group is joined. Octanoyl = CCCCCCCC(=O)*; Dab = NCC[C@H](N)C(=O)O
metricName: MIC (µM)
Report the figure in µM without appending any unit label.

CCCCCCCC(=O)N[C@@H](CCN)C(=O)N[C@@H](C)C(=O)N[C@@H](CCN)C(=O)N[C@H]1CCNC(=O)[C@H]([C@@H](C)O)NC(=O)[C@H](CCN)NC(=O)[C@H](CCN)NC(=O)[C@H](CC(C)C)NC(=O)[C@@H](Cc2ccccc2)NC(=O)[C@H](CCN)NC1=O (Octanoyl-[Dab]A[Dab][Dab][Dab][dF]L[Dab][Dab]T; lactam 4-C)    8
CC(C)C[C@@H]1NC(=O)[C@@H](CC(C)C)NC(=O)[C@H](CCN)NC(=O)[C@@H](NC(=O)[C@H](CCN)NC(=O)[C@@H](NC(=O)[C@H](CCN)NC(=O)C2CCCCCCCCCCC2)[C@@H](C)O)CCNC(=O)[C@H]([C@@H](C)O)NC(=O)[C@H](CCN)NC(=O)[C@H](CCN)NC1=O    4
CCCCCCCC(=O)N[C@H](C(=O)N[C@@H](CCN)C(=O)N[C@H]1CCNC(=O)[C@H]([C@@H](C)O)NC(=O)[C@H](CCN)NC(=O)[C@H](CCN)NC(=O)[C@H](CC(C)C)NC(=O)[C@@H](CC(C)C)NC(=O)[C@H](CCN)NC1=O)[C@@H](C)O [Octanoyl colistin nonapeptide]    1
CCCCCCCC(=O)N[C@@H](CCN)C(=O)N[C@H](C(=O)N[C@@H](CCN)C(=O)N[C@H]1CCNC(=O)[C@H]([C@@H](C)O)NC(=O)[C@H](CCN)NC(=O)[C@H](CCN)NC(=O)[C@H](C)NC(=O)[C@@H](Cc2ccccc2)NC(=O)[C@H](CCN)NC1=O)[C@@H](C)O    1
CC(C)C[C@H](NC(=O)O)C(=O)N[C@H](C(=O)N[C@@H](CCN)C(=O)N[C@H]1CCNC(=O)[C@H]([C@@H](C)O)NC(=O)[C@H](CCN)NC(=O)[C@H](CCN)NC(=O)[C@H](CC(C)C)NC(=O)[C@@H](Cc2ccccc2)NC(=O)[C@H](CCN)NC1=O)[C@@H](C)O [DESFA-[LEU1]POLYMYXIN B]    16

Lab note: next compound to report on.
Log: Escherichia coli, compound CC(C)C[C@@H]1NC(=O)[C@@H](Cc2ccccc2)NC(=O)[C@H](CCN)NC(=O)[C@@H](NC(=O)[C@H](CCN)NC(=O)[C@@H](NC(=O)[C@H](CCCNC(=N)N)NC(=O)O)[C@@H](C)O)CCNC(=O)[C@H]([C@@H](C)O)NC(=O)[C@H](CCN)NC(=O)[C@H](CCN)NC1=O [DESFA-[ARG1]POLYMYXIN B] , MIC = 8
